Reported kon values for a set of binders
- target_under_test: T1, human PRLR (Biacore antigen) (human, UniProt P16471 25-234, limits assumed)
- T1 construct: The construct injected over captured antibody is not described (a soluble form is likely); also called huPRLR
- T1 sequence: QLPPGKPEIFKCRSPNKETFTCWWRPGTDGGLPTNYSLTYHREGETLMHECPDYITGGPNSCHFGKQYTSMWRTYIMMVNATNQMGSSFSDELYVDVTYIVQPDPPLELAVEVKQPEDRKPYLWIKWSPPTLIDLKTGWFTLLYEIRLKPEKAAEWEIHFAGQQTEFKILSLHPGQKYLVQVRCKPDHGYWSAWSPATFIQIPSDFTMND
- test_details: SPR Biacore
Answer format: numeric, M⁻¹ s⁻¹ implied, no suffix.

| binder | kon, M⁻¹ s⁻¹ |
| --- | --- |
| Ab54 (antibody, human IgG1, kappa, V domains shown, humanized from Ab7 (back mutations on Ab39); G1; also called Ab4 HC.1a.3 and Ab4 LC.1a) VH: EVQLVQSGAEVKKPGSSVKVSCKASGYTFTSYWIHWVRQAPGQGLEWIGEIDPSDSYTNYNQKFKGRATLTVDKSSSTAYMELSSLRSEDTAVYYCGRSFFTNWFAYWGQGTLVTVSS VL: DVVMTQTPLSLSVTPGQPASISCRSSQSLVHSNGNTYLHWYLQKPGQSPQLLIYKVSNRFSGVPDRFSGSGSGTDFTLKISRVEAEDVGVYFCSQSTHVPFTFGGGTKVEIKR | 140000 |
| Ab18 (antibody, human IgG1, kappa, V domains shown, humanized from Ab6; G1; also called Ab1 HC.1a and Ab1 LC.1) VH: EVQLVQSGAEVKKPGSSVKVSCKASGYTFTTYWMHWVRQAPGQGLEWIGEIDPSDSYSNYNQKFKDRATLTVDKSTSTAYMELSSLRSEDTAVYYCARNGGLGPAWFSYWGQGTLVTVSS VL: DIQMTQSPSSVSASVGDRVTITCKASQYVGTAVAWYQQKPGKAPKLLIYSASNRYTGVPSRFSGSGSGTDFTLTISSLQPEDFATYYCQQYSSYPWTFGGGTKVEIKR | 1.06e+06 |

Then there is this binder:
# query: kon of entry Ab13 (antibody, V domains shown, murine monoclonal, isotype G2a; also called murine Ab13) VH: QVQLQQPGAELVRPGTSVKLSCKASGYTFTSFWMHWVKQRPGQGLEWIGVIDPSDSHTNYNQKFKGKATLTVNTSSSTAYMHLSSLTSEDSAVYYCARGDYSNWFTYWGQGTLVTVSA VL: DVVMTQTPFSLPVSLGDQASISCRSSQSLVHSNGNTYLHWYLQKPGQSPKLLIYKVSNRFSGVPDRFSGSGSGTDFTLKISRVEAEDLELYFCSQSTHVPWTFGGGTKLEIK
433000
